# assay: chemical genetic growth profiling, strain panel (AID 1159580);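 also: tested at 20 µM; growth read once vehicle control cultures reached saturation at 30 °C; 1 = growth at the plate median or of vehicle wells; lower values mean less growth of the strain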
# appliedConditions: S. cerevisiae deletion strains, growth OD, locus YEL061C, strain CIN8 (second series), hits give low values
The campaign covered roughly 5,500 compounds. About 2,000 (36%) were called active. Roughly 18% stayed inconclusive and do not appear here. This is one part of the list.
readoutName: normalized growth
One number for each entry.

Below, each entry is followed by its recorded normalized growth result.
molecule | normalized growth
CCN(CC)CCOC(=O)C(c1ccccc1)c1ccccc1 | 0.957
NCC(CC(=O)O)c1ccc(Cl)cc1 (stereo not drawn) | 1.01
CN(C)CCOC(=O)COc1ccc(Cl)cc1 | 0.972
Clc1ccc2c(c1)C(N1CCNCC1)=Nc1ccccc1O2 | 0.992
O=c1cc(-c2ccc(O)cc2)oc2cc(O)ccc12 | 0.949
O=C(O)CCCOc1ccc(Cl)cc1Cl | 0.929
CCCC(C(=O)OCCN(CC)CC)(c1ccccc1)c1ccccc1 | 1.01
O=C(O)c1ccccc1C(=O)Nc1ccc(S(=O)(=O)Nc2nccs2)cc1 | 0.99
COC(=O)CCC(C)C1CCC2C3CC[C@@H]4C[C@H](O)CC[C@]4(C)C3C[C@H](O)[C@]12C (stereo partly drawn) | 0.999
Cc1cc(=O)oc2c(O)c(O)ccc12 | 0.952

Give measured normalized growth for every item shown.
1. O=c1cc(-c2ccc(O)cc2)oc2cc(O)cc(O)c12
2. CC(CCC(=O)O)[C@H]1CCC2C3C[C@H](O)[C@@H]4C[C@H](O)CC[C@]4(C)C3CC[C@@]21C (stereo partly drawn)
3. C=C1C(C2(C)C=CC(=O)C(C)(C)C2CC(=O)OC)CC[C@@]2(C)[C@H](c3ccoc3)OC(=O)C3OC132 (stereo partly drawn)
4. CN1CCN(C2=Nc3ccccc3Oc3ccc(Cl)cc32)CC1
5. NS(=O)(=O)c1cc2c(cc1Cl)NC(C1CC3C=CC1C3)NS2(=O)=O (stereo not drawn)

(A)
1. 0.985
2. 0.987
3. 0.982
4. 0.97
5. 0.984

Could you report normalized growth for every entry in the following list?
1. Cc1cc(C)cc(OCC2CNC(=O)O2)c1 (stereo not drawn)
2. CSc1ccc2c(c1)N(CCC1CCCCN1C)c1ccccc1S2 (stereo not drawn)
3. C=C1[C@H]2CC[C@@]3(C)[C@H](c4ccoc4)OC(=O)C[C@]13O[C@H]1C[C@H](O)C(C)(C)[C@H](CC(=O)OC)[C@]12C
4. Cc1nc2ccccn2c(=O)c1CCN1CCC(C(=O)c2ccc(F)cc2)CC1
5. NCCOB(c1ccccc1)c1ccccc1
6. CCCCS(=N)(=O)CCC(N)C(=O)O (stereo not drawn)
7. O=c1cc(-c2ccccc2)oc2c(O)c(O)ccc12
8. O=C(O)CCC(=O)Nc1ccc(S(=O)(=O)Nc2nccs2)cc1

(A)
0.966
1.02
1.02
0.994
1.01
0.99
0.99
1.02

Return reported normalized growth values for all items listed beneath this line.
1. CCN(CCCc1ccccc1)CCCc1ccccc1
2. CC[C@H](CCC(C)[C@H]1CCC2C3CCC4C[C@@H](O)CC[C@]4(C)C3CC[C@@]21C)C(C)C (stereo partly drawn)

(A)
[0.988, 0.975]

State recorded normalized growth for all listed molecules.
1. CCC(=O)Nc1ccc(Cl)c(Cl)c1
2. NC(=O)c1ncn(C2O[C@H](CO)[C@@H](O)[C@H]2O)c1N (stereo partly drawn)
3. COc1cc(C)c(C(=O)Oc2cc(C)c(C(=O)O)c(O)c2C)c(OC)c1C
4. CC1=C2[C@H]3OC(=O)[C@@H](C)[C@@H]3CC[C@@]2(C)C=CC1=O

(A)
1. 0.978
2. 1.03
3. 0.982
4. 0.972

The measured values listed here are drawn from PubChem BioAssay AID1159580.
